Items are presented alongside their recorded intrinsic clearance, rat liver microsomes.
Answer in L/h/kg, number only, no unit symbol.

{"MOLECULE": "CC1CC1C(=O)N1CCC(n2c(=O)[nH]c3ccccc32)CC1 (stereo not given)", "RESULT_VALUE": 9.7}

// intrinsic clearance, rat liver microsomes lookup, molecule = COC(=O)N1CCCN(C(=O)C(=O)Nc2cccc(C(C)C)c2)CC1 , result: 73

# molecule CCN1CCN(S(=O)(=O)c2c[nH]c(C(C)C)n2)c2ccccc21 ; its intrinsic clearance, rat liver microsomes = 14.9

Looking up Cc1nnc2ncc(-c3cccc(-c4ccnn4C)c3)cn12 , I see its intrinsic clearance, rat liver microsomes listed as 1.86

Documented intrinsic clearance, rat liver microsomes of c1cc(Nc2cc(C3CC3)[nH]n2)nc(Nc2ccc3nc[nH]c3c2)n1 : 4.28

---

METRIC: intrinsic clearance, rat liver microsomes

{"SMILES_STRING": "O=C(NC[C@]1(O)CCN(Cc2cccs2)C[C@H]1O)c1c[nH]cn1", "RESULT_VALUE": "≤ 10.7 mL/min/kg"}
{"SMILES_STRING": "CC(=O)NCC1CCN(C(=O)c2ccc(C)nc2)CC1", "RESULT_VALUE": "≤ 10.7 mL/min/kg"}

Below: the item to evaluate.
Looking up CN(C)c1ncncc1NC(=O)c1ccc(C(F)(F)F)nc1 , I found its intrinsic clearance, rat liver microsomes recorded as ≤ 10.7 mL/min/kg

---

# PROTOCOL_CONDITIONS: pH 6.8
// aqueous solubility lookup, one value per entry
Provide the reading as a plain figure in µg/mL.

Some solved entries appear below for comparison.
{"SMILES_STRING": "CCn1nc(Cc2ccc(OC)cc2)nc1Cc1sc(C)nc1C", "RESULT_VALUE": 28.7}
{"SMILES_STRING": "Cn1c(NC(=O)c2ccn(COc3ccccc3)n2)nc2ccccc21", "RESULT_VALUE": 5.8}
{"SMILES_STRING": "COc1ccc(N2CCCN(CC3CCN(C(=O)C4CC4)CC3)CC2)cc1", "RESULT_VALUE": 59.7}

// aqueous solubility value for COc1ccccc1-c1csc(-n2ncc(C#N)c2N)n1 : 0.13

Lookup result for COc1ccc(OC)c(S(=O)(=O)Nc2cccc(CCc3ccccn3)c2)c1 ; measured aqueous solubility: 39.8

For this compound ( O=C1Oc2nc3cc4c(cc3cc2CN1CCN1CCOCC1)OCO4 ), measured aqueous solubility is 9.6

# aqueous solubility (compound: COc1cccc(N2CCN(c3nc(C)cc(C)c3C#N)CC2)c1 ) is 0.9

Looking up O=C(c1ccc(O)nc1)N1CCN(c2ncccn2)CC1 , I see its aqueous solubility listed as 43.1

---

Listed below: log10 of intrinsic clearance, human liver microsomes values for each entry.
In plain terms, each number is the log10 of measured intrinsic clearance, human liver microsomes in L/h/kg.

{"COMPOUND": "CN(C)C(=O)c1sc2nc(C3(C)CCN(c4ncccn4)CC3)ccc2c1N", "RESULT_VALUE": 0.28}
{"COMPOUND": "Cn1ccc2c(NC(=O)N3CCCN(C(=O)Oc4ccccc4)CC3)cccc21", "RESULT_VALUE": 0.40}
{"COMPOUND": "Cc1sc(NC(=O)CN2CCOC(C3CCCO3)C2)c(C)c1C (stereo not given)", "RESULT_VALUE": -0.12}
{"COMPOUND": "CCOc1ccc(-c2ccccc2NC(=O)COC)cc1", "RESULT_VALUE": 1.38}

Notebook: COc1ccc2nc3c(cc2c1)CNCCO3 , log10 of intrinsic clearance, human liver microsomes read as 0.03

Measured log10 of intrinsic clearance, human liver microsomes, COc1ccc(CC(=O)N2CCc3[nH]c4ccc(Cl)cc4c3C2)cc1OC : 0.86

// field: log10 of intrinsic clearance, human liver microsomes; key: COc1cc(CN2CCC(C(=O)N3CCOCC3)CC2)ccc1C ; value = -0.25

log10 of intrinsic clearance, human liver microsomes for CCn1ncc(CN(C)C(=O)c2ccc(-c3nc(C)cc(C)n3)cc2)c1C is 0.06

Item: Cc1cc(N(CCO)CCCO)ncc1Br | log10 of intrinsic clearance, human liver microsomes: -0.13
